EXPERIMENT_NOTES: Probe fluorescence ratio response to linolenic acid relative to ADIFAB2
Format: binding
TEST_CONDITIONS: response relative to ADIFAB2
The following molecules are shown together with reported DR/DR LNA values.
ENDPOINT_LABEL: DR/DR LNA

| MOLECULE | MEASURED_VALUE |
| --- | --- |
| 14L 31W 117V 72A (protein, listed as Rattus norvegicus, PEPTIDE (1)...(131) wild-type rat intestinal fatty acid binding protein) AFDGTWKVDRNENLEKFMEKMGINVVKRKLWAHDNLKLTITQEGNKFTVKESSNFRNIDVVFELGVDFAYSAADGTELTGTWTMEGNKLVGKFKRVDNGKELIAVREISGNELIQTVTYEGVEAKRIFKKE | 1.894 |
| 40F2, L72A (protein, listed as Rattus norvegicus, PEPTIDE (1)...(131) wild-type rat intestinal fatty acid binding protein) AFDGTWKVDRNENYEKFMEKMGINVVKRKLGAHDNLKLTFTQEGNKFTVKESSNFRNIDVVFELGVDFAYSAADGTELTGTWTMEGNKLVGKFKRVDNGKELIAVREISGNELIQTYTYEGVEAKRIFKKE | 0.99 |
| 31E3, 72A (protein, listed as Rattus norvegicus, PEPTIDE (1)...(131) wild-type rat intestinal fatty acid binding protein) AFDGTWKVDRNENYEKFMEKMGINVVKRKLEAHDNLKLTITQEGNKFTVKESSNFRNIDVVFELGVDFAYSAADGTELTGTWTMEGNKLVGKFKRVDNGKELIAVREISGNELIQTYTYEGVEAKRIFKKE | 0.82 |
| 68G, 72A (protein, listed as Rattus norvegicus, PEPTIDE (1)...(131) wild-type rat intestinal fatty acid binding protein) AFDGTWKVDRNENYEKFMEKMGINVVKRKLGAHDNLKLTITQEGNKFTVKESSNFRNIDVVFELGVDGAYSAADGTELTGTWTMEGNKLVGKFKRVDNGKELIAVREISGNELIQTYTYEGVEAKRIFKKE | 0.18 |
| 82V, 72A (protein, listed as Rattus norvegicus, PEPTIDE (1)...(131) wild-type rat intestinal fatty acid binding protein) AFDGTWKVDRNENYEKFMEKMGINVVKRKLGAHDNLKLTITQEGNKFTVKESSNFRNIDVVFELGVDFAYSAADGTELTGTVTMEGNKLVGKFKRVDNGKELIAVREISGNELIQTYTYEGVEAKRIFKKE | 0.456 |
| 14L 72G (protein, listed as Rattus norvegicus, PEPTIDE (1)...(131) wild-type rat intestinal fatty acid binding protein) AFDGTWKVDRNENLEKFMEKMGINVVKRKLGAHDNLKLTITQEGNKFTVKESSNFRNIDVVFELGVDFAYSGADGTELTGTWTMEGNKLVGKFKRVDNGKELIAVREISGNELIQTYTYEGVEAKRIFKKE | 0.886 |
